# IC50 annotations
# target_under_test: Human recombinant MAGL (Homo sapiens)
# Construct: purchased Cayman Chemical (Ann Arbor, MI, USA)
# Sequence (Q99685 whole entry): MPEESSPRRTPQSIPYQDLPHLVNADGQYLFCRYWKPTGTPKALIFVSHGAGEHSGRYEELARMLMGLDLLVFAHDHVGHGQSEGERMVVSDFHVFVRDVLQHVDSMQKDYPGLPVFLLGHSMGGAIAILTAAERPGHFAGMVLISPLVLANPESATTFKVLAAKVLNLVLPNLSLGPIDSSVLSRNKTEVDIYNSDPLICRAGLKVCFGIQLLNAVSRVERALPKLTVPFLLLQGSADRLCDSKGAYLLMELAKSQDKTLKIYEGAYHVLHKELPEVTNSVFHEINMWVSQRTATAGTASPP
# experimental_details: MAGL enzyme inhibition assay (4-NPA substrate, absorbance 405 nm)
# Format: biochemical
# condition_details: 30 min, rt, pH 7.2

Consider the reported IC50 for these compounds:
• Cc1cc(=O)[nH]c(-c2ccc(NS(=O)(=O)c3ccc(F)cc3Cl)cc2)n1 = 34.7 µM
• O=C(Nc1nnc(C2CC(=O)N(c3ccccc3)C2)s1)c1cccc(Br)c1 (stereo not drawn) = > 200 µM

Q) Using the record for O=C1c2ccc(-c3nc4ccccc4c(=O)o3)cc2C(=O)N1Cc1ccc(Cl)cc1 , report its IC50.
A) > 200 µM
